RAC-alpha serine/threonine-protein kinase (Homo sapiens, UniProt P31749) pIC50, compiled from various sources.
Sequence (P31749 whole entry): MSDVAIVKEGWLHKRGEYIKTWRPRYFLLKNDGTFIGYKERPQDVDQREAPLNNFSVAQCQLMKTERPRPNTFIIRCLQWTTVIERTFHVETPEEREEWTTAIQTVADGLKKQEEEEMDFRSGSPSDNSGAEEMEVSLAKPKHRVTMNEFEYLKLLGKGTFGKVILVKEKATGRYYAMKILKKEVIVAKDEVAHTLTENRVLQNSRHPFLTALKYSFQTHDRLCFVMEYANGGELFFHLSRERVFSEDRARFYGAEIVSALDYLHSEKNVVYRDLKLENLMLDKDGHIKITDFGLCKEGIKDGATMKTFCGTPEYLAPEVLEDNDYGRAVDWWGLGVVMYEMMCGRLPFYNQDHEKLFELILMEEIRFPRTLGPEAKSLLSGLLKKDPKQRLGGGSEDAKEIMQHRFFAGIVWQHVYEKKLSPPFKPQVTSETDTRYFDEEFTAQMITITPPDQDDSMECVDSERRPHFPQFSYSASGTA
pIC50: −log10 of the molar value.

Below are worked cases with known answers.
SMILES_TEXT: O=C(Nc1ccc(N2CCNCC2)cc1)c1ccc(-c2ccc(Cl)cc2)o1
RESULT: < 4.52
//
SMILES_TEXT: Cc1ccc2[nH]c(=O)c(C(=O)/C=C/c3nc4ccccc4[nH]3)c(-c3ccccc3)c2c1
RESULT: 4.35 to 5.79
//
SMILES_TEXT: CC1(C)c2cc(OCCN3CCOCC3)ccc2C(=O)c2c1oc1cc(C#Cc3cc(OCC4CC4)ccn3)ccc21
RESULT: < 5.00

# input for lookup
# input Request: pIC50, test system RAC-alpha serine/threonine-protein kinase (Homo sapiens, UniProt P31749), entry `C=CC(=O)N1CCC[C@H]1C(=O)Nc1cc2c(Nc3ccc(F)c(Cl)c3F)ncnc2cc1OCCOC`
# output < 5.00
